Biological target: CD28 (Homo sapiens, UniProt P10747)
Experiment: Jurkat/IL2 + K562/OKT3/PD-L1 reporter assay
Assay type: cell-based
Parameters: host or cells: Jurkat cells expressing an IL-2-luciferase reporter
Settings: Table E8; K562/OKT3/PD-L1 aAPC; 50 nM
Record form. Attribute: Fold Increase over WT CD80-IgV-Fe. Fill in for each entry.
Give bare numbers.

Below are worked cases with known answers.
E35D/T41S/M43V/M47I/L70M/A71G (protein, UniProt P33681 35-288, looked up, variant E35D T41S M43V M47I L70M A71G, Fc fusion) T-lymphocyte activation …: VIHVTKEVKEVATLSCGHNVSVEELAQTRIYWQKDKKMVLSMVSGDINIWPEYKNRTIFDITNNLSIVIMGLRPSDEGTYECVVLKYEKDAFKREHLAEVTLSVKADFPTPSISDFEIPTSNIRRIICSTSGGFPEPHLSWLENGEELNAINTTVSQDPETELYAVSSKLDFNMTTNHSFMCLIKYGHLRVNQTFNWNTTKQEHFPDNLLPSWAITLISVNGIFVICCLTYCFAPRCRERRRNERLRRESVRPV | 8.1
E35D/L85Q/K93T/E95V/L97Q (protein, UniProt P33681 35-288, looked up, variant E35D L85Q K93T E95V L97Q) T-lymphocyte activation …: VIHVTKEVKEVATLSCGHNVSVEELAQTRIYWQKDKKMVLTMMSGDMNIWPEYKNRTIFDITNNLSIVILALRPSDEGTYECVVQKYEKDAFTRVHQAEVTLSVKADFPTPSISDFEIPTSNIRRIICSTSGGFPEPHLSWLENGEELNAINTTVSQDPETELYAVSSKLDFNMTTNHSFMCLIKYGHLRVNQTFNWNTTKQEHFPDNLLPSWAITLISVNGIFVICCLTYCFAPRCRERRRNERLRRESVRPV | 1.5
E35D/D46E/M47V/N63D/L85Q (protein, UniProt P33681 35-288, looked up, variant E35D D46E M47V N63D L85Q) T-lymphocyte activation …: VIHVTKEVKEVATLSCGHNVSVEELAQTRIYWQKDKKMVLTMMSGEVNIWPEYKNRTIFDITDNLSIVILALRPSDEGTYECVVQKYEKDAFKREHLAEVTLSVKADFPTPSISDFEIPTSNIRRIICSTSGGFPEPHLSWLENGEELNAINTTVSQDPETELYAVSSKLDFNMTTNHSFMCLIKYGHLRVNQTFNWNTTKQEHFPDNLLPSWAITLISVNGIFVICCLTYCFAPRCRERRRNERLRRESVRPV | 6.7
Q33L/E35D/M47I/N48D/A71G (protein, UniProt P33681 35-288, looked up, variant Q33L E35D M47I N48D A71G) T-lymphocyte activation …: VIHVTKEVKEVATLSCGHNVSVEELAQTRIYWLKDKKMVLTMMSGDIDIWPEYKNRTIFDITNNLSIVILGLRPSDEGTYECVVLKYEKDAFKREHLAEVTLSVKADFPTPSISDFEIPTSNIRRIICSTSGGFPEPHLSWLENGEELNAINTTVSQDPETELYAVSSKLDFNMTTNHSFMCLIKYGHLRVNQTFNWNTTKQEHFPDNLLPSWAITLISVNGIFVICCLTYCFAPRCRERRRNERLRRESVRPV | 1.0

So, R29H/E35D/M43V/M47I/I49V (protein, UniProt P33681 35-288, looked up, variant R29H E35D M43V M47I I49V) T-lymphocyte activation …: VIHVTKEVKEVATLSCGHNVSVEELAQTHIYWQKDKKMVLTMVSGDINVWPEYKNRTIFDITNNLSIVILALRPSDEGTYECVVLKYEKDAFKREHLAEVTLSVKADFPTPSISDFEIPTSNIRRIICSTSGGFPEPHLSWLENGEELNAINTTVSQDPETELYAVSSKLDFNMTTNHSFMCLIKYGHLRVNQTFNWNTTKQEHFPDNLLPSWAITLISVNGIFVICCLTYCFAPRCRERRRNERLRRESVRPV ? Its Fold Increase over WT CD80-IgV-Fe was 1.1

From: patent US20220177587A1
